Target: T1, VLP2 (virus-like particles of AAV2) (AAV2, UniProt P03135 1-735; P03135 1-598; P03135 1-533)
T1 construct: Empty AAV2 capsid; background says about 60 protein molecules, VP1:VP2:VP3 = 1:1:10; Immobilised on the ELISA plate
T1 sequence (P03135 whole entry, chain 1 of 3): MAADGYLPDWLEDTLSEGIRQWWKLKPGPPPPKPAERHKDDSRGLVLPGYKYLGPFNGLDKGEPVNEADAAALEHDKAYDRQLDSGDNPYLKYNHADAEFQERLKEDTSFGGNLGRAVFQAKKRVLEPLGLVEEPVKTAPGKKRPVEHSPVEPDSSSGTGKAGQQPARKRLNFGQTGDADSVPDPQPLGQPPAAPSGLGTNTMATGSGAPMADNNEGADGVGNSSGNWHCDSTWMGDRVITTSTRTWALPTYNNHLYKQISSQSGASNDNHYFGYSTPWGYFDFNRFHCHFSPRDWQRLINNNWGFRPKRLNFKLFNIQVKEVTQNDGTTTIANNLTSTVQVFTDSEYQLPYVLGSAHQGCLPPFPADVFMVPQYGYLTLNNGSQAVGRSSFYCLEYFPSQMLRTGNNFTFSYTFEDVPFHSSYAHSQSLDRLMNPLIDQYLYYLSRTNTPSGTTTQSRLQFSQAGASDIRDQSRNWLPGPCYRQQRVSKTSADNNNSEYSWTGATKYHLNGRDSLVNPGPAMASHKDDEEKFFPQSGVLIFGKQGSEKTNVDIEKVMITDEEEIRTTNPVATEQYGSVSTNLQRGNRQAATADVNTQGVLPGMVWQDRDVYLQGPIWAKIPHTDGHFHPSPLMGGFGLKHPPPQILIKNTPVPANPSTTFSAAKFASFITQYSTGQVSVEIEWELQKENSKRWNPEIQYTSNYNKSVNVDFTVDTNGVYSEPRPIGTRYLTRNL
T1 sequence (P03135 139-735, tags left off, chain 2 of 3): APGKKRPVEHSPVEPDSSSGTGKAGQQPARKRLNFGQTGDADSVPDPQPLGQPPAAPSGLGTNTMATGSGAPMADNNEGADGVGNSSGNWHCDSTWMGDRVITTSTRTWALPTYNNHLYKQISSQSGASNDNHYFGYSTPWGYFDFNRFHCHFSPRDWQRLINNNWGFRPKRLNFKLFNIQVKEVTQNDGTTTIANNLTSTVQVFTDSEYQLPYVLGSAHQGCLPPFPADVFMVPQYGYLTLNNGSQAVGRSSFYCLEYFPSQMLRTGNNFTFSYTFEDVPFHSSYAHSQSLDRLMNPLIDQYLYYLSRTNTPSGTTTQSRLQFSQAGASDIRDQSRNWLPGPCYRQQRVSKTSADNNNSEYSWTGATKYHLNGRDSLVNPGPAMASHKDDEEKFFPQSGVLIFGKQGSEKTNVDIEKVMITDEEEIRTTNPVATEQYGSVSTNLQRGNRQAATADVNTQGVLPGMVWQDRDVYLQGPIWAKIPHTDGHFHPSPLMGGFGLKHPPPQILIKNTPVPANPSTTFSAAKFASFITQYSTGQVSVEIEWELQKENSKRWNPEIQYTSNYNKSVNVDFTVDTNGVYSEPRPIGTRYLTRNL
T1 sequence (P03135 203-735, chain 3 of 3): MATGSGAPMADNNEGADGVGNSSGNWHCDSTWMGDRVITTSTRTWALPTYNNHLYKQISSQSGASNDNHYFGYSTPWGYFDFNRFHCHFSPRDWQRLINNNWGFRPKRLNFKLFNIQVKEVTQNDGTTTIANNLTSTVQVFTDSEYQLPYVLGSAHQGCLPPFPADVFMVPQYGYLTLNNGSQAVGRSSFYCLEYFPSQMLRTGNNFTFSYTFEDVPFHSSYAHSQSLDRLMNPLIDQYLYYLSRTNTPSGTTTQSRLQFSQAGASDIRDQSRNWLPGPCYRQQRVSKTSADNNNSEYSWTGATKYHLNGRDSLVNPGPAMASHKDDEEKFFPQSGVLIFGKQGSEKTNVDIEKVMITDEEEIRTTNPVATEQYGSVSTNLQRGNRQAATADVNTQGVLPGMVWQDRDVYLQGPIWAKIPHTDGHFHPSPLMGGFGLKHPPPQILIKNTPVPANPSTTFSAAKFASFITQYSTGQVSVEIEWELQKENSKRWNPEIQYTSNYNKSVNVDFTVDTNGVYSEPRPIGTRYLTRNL
Test: ELISA on VLP2; binding after 43°C 15 min / untreated
For each entry below, report its Residual activity [%] value.
Remember to quote the unit after the number.

Prompt: Sample AAV-binding protein No. 17 (Phe379Ser) (receptor) MGSAGESVQITLPKNEVQLNAYVLQEPPKGETYTYDWQLITHPRDYSGEMEGKHSQILKLSKLTPGLYESKVIVEGQNAHGEGYVNVTVKPEPRKNRPPIAIVSPQFQEISLPTTSTVIDGSQSTDDDKIVQYHWEELKGPLREEKISEDTAILKLSKLVPGNYTFSLTVVDSDGATNSTTANLTVNKAVDHHHHHH — what was its Residual activity [%]?
Completion: 80.9%

Prompt: Can you look up the measured Residual activity [%] of AAV-binding protein No. 10 (Arg353Cys) (receptor) MGSAGESVQITLPKNEVQLNAYVLQEPPKGETYTYDWQLITHPCDYSGEMEGKHSQILKLSKLTPGLYEFKVIVEGQNAHGEGYVNVTVKPEPRKNRPPIAIVSPQFQEISLPTTSTVIDGSQSTDDDKIVQYHWEELKGPLREEKISEDTAILKLSKLVPGNYTFSLTVVDSDGATNSTTANLTVNKAVDHHHHHH for me?
Completion: 84.3%

Prompt: Find the recorded Residual activity [%] belonging to AAV-binding protein No. 30 (Glu340Gly, Tyr342Cys) (receptor) MGSAGESVQITLPKNEVQLNAYVLQEPPKGGTCTYDWQLITHPRDYSGEMEGKHSQILKLSKLTPGLYEFKVIVEGQNAHGEGYVNVTVKPEPRKNRPPIAIVSPQFQEISLPTTSTVIDGSQSTDDDKIVQYHWEELKGPLREEKISEDTAILKLSKLVPGNYTFSLTVVDSDGATNSTTANLTVNKAVDHHHHHH and report it.
Completion: 91.3%

Prompt: Quick one: Residual activity [%] for AAV-binding protein No. 37 (Gln365Arg, His389Gln) (receptor) MGSAGESVQITLPKNEVQLNAYVLQEPPKGETYTYDWQLITHPRDYSGEMEGKHSRILKLSKLTPGLYEFKVIVEGQNAQGEGYVNVTVKPEPRKNRPPIAIVSPQFQEISLPTTSTVIDGSQSTDDDKIVQYHWEELKGPLREEKISEDTAILKLSKLVPGNYTFSLTVVDSDGATNSTTANLTVNKAVDHHHHHH ?
Completion: 70.1%

Prompt: Returns the measured Residual activity [%] for the input binder. Input: AAV-binding protein No. 55 (Gln365Arg, Ser370Ala, Glu391Lys) (receptor) MGSAGESVQITLPKNEVQLNAYVLQEPPKGETYTYDWQLITHPRDYSGEMEGKHSRILKLAKLTPGLYEFKVIVEGQNAHGKGYVNVTVKPEPRKNRPPIAIVSPQFQEISLPTTSTVIDGSQSTDDDKIVQYHWEELKGPLREEKISEDTAILKLSKLVPGNYTFSLTVVDSDGATNSTTANLTVNKAVDHHHHHH
Completion: 65.7%

Prompt: Please look up its Residual activity [%]: AAV-binding protein No. 57 (Gln334Arg, Val381Ala, His389Arg, Tyr393Cys) (receptor) MGSAGESVQITLPKNEVQLNAYVLREPPKGETYTYDWQLITHPRDYSGEMEGKHSQILKLSKLTPGLYEFKAIVEGQNARGEGCVNVTVKPEPRKNRPPIAIVSPQFQEISLPTTSTVIDGSQSTDDDKIVQYHWEELKGPLREEKISEDTAILKLSKLVPGNYTFSLTVVDSDGATNSTTANLTVNKAVDHHHHHH
Completion: 79%

Prompt: // query Residual activity [%] value for entry AAV-binding protein No. 24 (Asn492Asp) (receptor) MGSAGESVQITLPKNEVQLNAYVLQEPPKGETYTYDWQLITHPRDYSGEMEGKHSQILKLSKLTPGLYEFKVIVEGQNAHGEGYVNVTVKPEPRKNRPPIAIVSPQFQEISLPTTSTVIDGSQSTDDDKIVQYHWEELKGPLREEKISEDTAILKLSKLVPGNYTFSLTVVDSDGATNSTTADLTVNKAVDHHHHHH
Completion: 63.2%
